Reference for the values: patent US20260116983A1

Target: T1, cynomolgus uPAR (recombinant) (cynomolgus monkey, UniProt Q9GK78 23-303, limits assumed)
T1 construct: also called cyno uPAR; AF647-cyno uPAR
T1 sequence (looked up): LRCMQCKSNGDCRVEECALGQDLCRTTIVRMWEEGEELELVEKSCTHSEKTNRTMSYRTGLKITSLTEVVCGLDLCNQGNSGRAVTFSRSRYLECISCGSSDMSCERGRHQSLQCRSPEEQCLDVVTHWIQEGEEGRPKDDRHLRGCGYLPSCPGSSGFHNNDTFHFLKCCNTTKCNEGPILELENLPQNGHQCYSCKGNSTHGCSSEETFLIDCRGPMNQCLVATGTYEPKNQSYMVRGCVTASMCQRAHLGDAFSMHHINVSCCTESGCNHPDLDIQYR
Assay: BLI (Octet HTX)
Procedure: Kinetic constant ranges for Octet HTX were between 1 mM to 10 pM.
measurement-kind: pKd
Give only the number. pKd is defined as minus log10 of concentration in molar units.

3159 HC3 + LC3 (humanized) (antibody, V domains shown, detected with anti-human Fc antibody) VH: QITLKESGPTLVKPTQTLTLTCTLSGFSLSTSGMGVSWIRQPPGKALEWLAHIYWDDDKRYNPSLKSRLTITKDASKDQVVLTMTNMDTVDTATYYCGRRVRNYFSGTSYWYFDVWGTGTLVTVSS VL: DIVMTQSPLSLPVTPGEPASISCRSSQNILHRTGNTYLDWYLQKPGQSPQLLIYKVSNRFSGVPDRFSGSGSGTDFTLKISRVEAEDVGVYYCFQGSYVPFTFGQGTKLEIK = 7.23
3159 HC3 + LC2 (humanized) (antibody, V domains shown, detected with anti-human Fc antibody) VH: QITLKESGPTLVKPTQTLTLTCTLSGFSLSTSGMGVSWIRQPPGKALEWLAHIYWDDDKRYNPSLKSRLTITKDASKDQVVLTMTNMDTVDTATYYCGRRVRNYFSGTSYWYFDVWGTGTLVTVSS VL: DVVMTQSPLSLPVTLGQPASISCRSSQNILHRTGNTYLEWFQQRPGQSPRLLIYKVSNRFSGVPDRFSGSGSGTDFTLKISRVEAEDVGVYYCFQGSYVPFTFGQGTKLEIK = 5.65

The record that follows has no pKd shown yet.
Output measured pKd for this item: 3159 HC2 + LC1 (humanized) (antibody, V domains shown, detected with anti-human Fc antibody) VH: QVTLKESGPVLVKPTETLTLTCTVSGFSLSTSGMGVSWIRQPPGKGLEWLAHIYWDDDKRYSPSLKSRLTISKDASKDQVVLTMTNMDTVDTATYYCGRRVRNYFSGTSYWYFDVWGTGTLVTVSS VL: DIVMTQTPLSLSVTPGQPASISCKSSQNILHRTGNTYLEWYLQKPGQPPQLLIYKVSNRFSGVPDRFSGSGSGTDFTLKISRVEAEDVGVYYCFQGSYVPFTFGQGTKLEIK
7.39
